Attribution: patent US8404695B2

Tested target: Human JNK1α1 (Homo sapiens, UniProt P45983)
Sequence (P45983 1-384 isoform P45983-2): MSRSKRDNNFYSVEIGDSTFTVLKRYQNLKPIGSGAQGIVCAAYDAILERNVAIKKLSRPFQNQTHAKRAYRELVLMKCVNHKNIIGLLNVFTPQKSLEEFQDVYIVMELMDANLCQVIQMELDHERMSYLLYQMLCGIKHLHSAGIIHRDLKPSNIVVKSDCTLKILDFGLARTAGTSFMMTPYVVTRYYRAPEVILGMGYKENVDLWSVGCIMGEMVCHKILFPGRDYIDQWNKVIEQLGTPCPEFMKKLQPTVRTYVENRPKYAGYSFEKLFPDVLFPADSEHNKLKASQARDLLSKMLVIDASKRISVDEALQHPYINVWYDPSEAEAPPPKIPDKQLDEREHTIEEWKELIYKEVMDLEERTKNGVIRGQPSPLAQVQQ

{"columns": ["Compound smiles", "IC50 (nM)"],
 "data": [
  ["Cc1cc2cnc(NC3CCCCC3)nc2n(CCCO)c1=O", 503]
]}

----------
Attribute: IC50
Tested target: Human JNK2α2 (Homo sapiens)
Sequence (P45984 whole entry): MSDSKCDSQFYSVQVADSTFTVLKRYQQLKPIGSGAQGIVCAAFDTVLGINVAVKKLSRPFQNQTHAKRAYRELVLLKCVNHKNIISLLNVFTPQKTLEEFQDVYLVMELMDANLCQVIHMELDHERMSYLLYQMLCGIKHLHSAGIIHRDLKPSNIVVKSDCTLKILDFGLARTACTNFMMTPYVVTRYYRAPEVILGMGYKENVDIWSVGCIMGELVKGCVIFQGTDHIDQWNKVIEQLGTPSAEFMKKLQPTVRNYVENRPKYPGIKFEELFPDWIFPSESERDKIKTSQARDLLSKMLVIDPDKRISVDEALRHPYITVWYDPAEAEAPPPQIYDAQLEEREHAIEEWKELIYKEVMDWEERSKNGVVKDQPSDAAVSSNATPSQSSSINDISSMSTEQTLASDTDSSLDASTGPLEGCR
Assay info: JNK assay in vitro, phosphorylation of GST-ATF2 (19-96) with [γ-33P] ATP, JNK2
Format: biochemical
Run conditions: 1 nM enzyme, 1 μM ATF2, 8 μM ATP, 30° C. for 30 min
Readout label: IC50 (nM)

{"columns": ["Compound", "Unit", "Experimental result"],
 "data": [
  ["O=c1ccc2cnc(NC3CCCCC3)nc2n1C1CCCC1 [Compound 3]", "nM", 136],
  ["CS(=O)(=O)N[C@H]1CC[C@H](Nc2ncc3ccc(=O)n(CCCO)c3n2)CC1 [Compound 5]", "nM", 778],
  ["CS(=O)(=O)NCCCn1c(=O)ccc2cnc(NC3CCCCC3)nc21 [Compound 9]", "nM", 625]
]}
